Record: AC50 reported on UniProtKB P28335.
Sequence (P28335 whole entry): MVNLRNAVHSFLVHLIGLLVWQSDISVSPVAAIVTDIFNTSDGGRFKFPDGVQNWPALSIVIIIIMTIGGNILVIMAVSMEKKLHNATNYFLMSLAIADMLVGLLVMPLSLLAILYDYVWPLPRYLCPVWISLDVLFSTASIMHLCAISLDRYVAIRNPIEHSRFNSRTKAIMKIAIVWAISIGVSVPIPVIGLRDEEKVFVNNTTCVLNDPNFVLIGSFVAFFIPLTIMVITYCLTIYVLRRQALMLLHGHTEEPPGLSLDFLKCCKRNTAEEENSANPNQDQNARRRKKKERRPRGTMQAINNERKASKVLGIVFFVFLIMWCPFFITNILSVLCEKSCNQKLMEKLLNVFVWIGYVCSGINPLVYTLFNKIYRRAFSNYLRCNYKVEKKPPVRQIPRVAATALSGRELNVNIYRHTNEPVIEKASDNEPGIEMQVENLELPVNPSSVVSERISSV
OUTCOME_MEASURE: AC50

> print(dat)
                                   compound  outcome.measure   result
1                Cn1c(=O)c2[nH]cnc2n(C)c1=O             AC50  > 30 µM
2  C=C(C)[C@@H]1CCC(C)=C[C@H]1c1c(O)cc(CCCCC)cc1O             AC50  > 30 µM
3  CCOc1cc(CC(=O)N[C@@H](CC(C)C)c2ccccc2N2CCCCC2)ccc1C(=O)O [REPAGLINIDE]             AC50  > 30 µM
